List of Mean Inhibitory Time of Rhythmic Bladder Contractions values.
Tested on: rhythmic bladder contractions in rats
Test Description: Inhibitory effect against rhythmic bladder contractions in rats
Assay type: in vivo
Run Parameters: anesthetized female SD rats, intravenous, dose 0.3 mg/kg body weight
Assay Readout: Mean Inhibitory Time of Rhythmic Bladder Contractions (min)

[[record]]
molecule = "CCCN1CC[C@]23c4c5ccc(O)c4O[C@H]2[C@H](N2C(=O)c4cccc(N)c4C2=O)CC[C@@]3(O)[C@H]1C5"
measure_unit = "min"
numeric_result = 15.1

[[record]]
molecule = "CN1CC[C@]23c4c5ccc(O)c4O[C@H]2[C@H](N2CCOCc4ccccc42)CC[C@H]3[C@H]1C5"
measure_unit = "min"
numeric_result = 7.8

[[record]]
molecule = "CN1C(=O)CN([C@@H]2CC[C@@]3(O)[C@H]4Cc5ccc(O)c6c5[C@@]3(CCN4C)[C@H]2O6)c2ccccc21"
measure_unit = "min"
numeric_result = 6.8

[[record]]
molecule = "O=C1c2ccccc2CN1[C@@H]1CC[C@@]2(O)[C@H]3Cc4ccc(O)c5c4[C@@]2(CCN3CC2CC2)[C@H]1O5"
measure_unit = "min"
numeric_result = 19.6

[[record]]
molecule = "O=C1C(Cc2ccccc2)CCN1[C@H]1CC[C@@]2(O)[C@H]3Cc4ccc(O)c5c4[C@@]2(CCN3CC2CC2)[C@H]1O5 (some centres unmarked)"
measure_unit = "min"
numeric_result = 29.9

